Test system: Echinochloa crus-galli (ECHCG)
assay.notes: Post-emergence Test, Echinochloa crus-galli (ECHCG)
Format: in vivo
Set-up: key: 5=81-100%, 4=61-80%, 3=41-60%, 2=21-40%, 1=0-20% damage
details: 1000 g/ha, evaluated after 13 days
For each entry below, report its percentage damage caused to the plant, ECHCG (five-point scale) value.

CCOC(=O)c1c(-c2ccc(Cl)c(Cl)c2)n(CC)c(Cn2ccc(Cl)n2)c(Br)c1=O ... 0

Report percentage damage caused to the plant, ECHCG (five-point scale) for each item below.
1. CCOC(=O)c1c(-c2ccc(Cl)c(Cl)c2)n(CC)c(Cn2ncc3cnc(Cl)cc32)cc1=O
2. CCn1c(Cn2ccc(OC(F)F)n2)cc(=O)c(C(=O)O)c1-c1ccc(Cl)c(Cl)c1
3. CCn1c(Cn2nc(C)cc2O)cc(=O)c(C(=O)O)c1-c1ccc(Cl)c(Cl)c1
4. CCn1c(Cn2cnc(F)c2)cc(=O)c(C(=O)O)c1-c1ccc(Cl)c(Cl)c1

Solution:
1: 1 (1=0-20%); 2: 4 (4=61-80%); 3: 0; 4: 1 (1=0-20%)

Report percentage damage caused to the plant, ECHCG (five-point scale) for each item below.
1. CCn1c(Cn2cc3c(n2)CCCC3)cc(=O)c(C(=O)O)c1-c1ccc(Cl)c(Cl)c1
2. CCn1c(Cn2nc(C(=O)OC)cc2C(=O)OC)cc(=O)c(C(=O)O)c1-c1ccc(Cl)c(Cl)c1
3. CCn1c(Cn2ncc(Cl)c2C)cc(=O)c(C(=O)O)c1-c1ccc(Cl)c(Cl)c1

Solution:
0
0
2 (2=21-40%)
